Reference for the values: patent US20250368634A1

# target: SOS1-KRas (G12C) (Homo sapiens (Human), UniProt Q07889)
# Sequence (Q07889 564-1049, stated change not applied): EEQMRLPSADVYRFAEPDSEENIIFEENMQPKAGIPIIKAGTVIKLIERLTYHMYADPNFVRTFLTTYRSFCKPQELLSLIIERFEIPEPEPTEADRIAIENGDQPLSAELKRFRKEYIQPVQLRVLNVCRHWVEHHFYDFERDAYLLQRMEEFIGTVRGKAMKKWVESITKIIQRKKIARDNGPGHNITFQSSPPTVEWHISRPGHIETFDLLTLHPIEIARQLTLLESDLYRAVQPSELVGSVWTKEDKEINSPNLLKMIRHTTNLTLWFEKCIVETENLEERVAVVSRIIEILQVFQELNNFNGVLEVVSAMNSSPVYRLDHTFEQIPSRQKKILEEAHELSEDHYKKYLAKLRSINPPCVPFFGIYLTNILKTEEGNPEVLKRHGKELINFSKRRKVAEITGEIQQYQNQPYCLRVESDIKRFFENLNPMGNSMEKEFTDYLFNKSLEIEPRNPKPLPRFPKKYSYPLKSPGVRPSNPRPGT
# assayOverview: SOS1-KRas (G12C) FRET Assay
# Assay type: binding
# measurementParameters: inhibition of SOS1:KRAS interaction; 0.5 nM His10-SOS1 (res. 564-1049), 2.5 nM GST-KRAS (res. 1-169, G12C); 2 hrs at RT
metric: pIC50
Numbers only, as −log10 of the molar value.

                                   molecule  reportedmeasurement
0  C[C@@H](NC(=O)c1cc(C23CC(C2)C3)c(F)cc1NC1CCN(C)CC1)c1cccc(C(F)F)c1F                 6.86
1  C[C@@H](NC(=O)c1cc(N2CCCC2)c(F)cc1N[C@H]1CN2CCC1CC2)c1cccc(C(F)F)c1F                 7.46
2  C[C@@H](NC(=O)c1cc(N2CCOCC2)c(F)cc1NC1(C)CN(C)C1)c1cccc(C(F)F)c1F                 7.13

For each of the molecules below, state pIC50.
1. C[C@@H](NC(=O)c1cc(N2CCCC2)c(F)cc1N[C@@H]1CN2CCC1CC2)c1cccc(C(F)F)c1F
2. C[C@@H](NC(=O)c1cc(O[C@H]2CCOC2)c(F)cc1NC1CCN(C)CC1)c1cccc(C(F)F)c1F
3. Cc1c([C@@H](C)NC(=O)c2cc(C3CCOCC3)c(F)cc2NC2CCN(C)CC2)cccc1C(F)(F)F

Result:
1: 6.88; 2: 7.15; 3: 6.65

###

# target: SOS1-KRas (G12C) (Homo sapiens (Human), UniProt Q07889)
# assayOverview: SOS1-KRas (G12C) FRET Assay
# Type: binding
Entries whose IC50 is below 40 nM take True; entries at or above 40 nM take False.

Some solved cases for reference:
In [3]: df
Out[3]:
                                   compound  category
0  C[C@@H](NC(=O)c1cc(-c2ccncc2)c(F)cc1N[C@H]1CN2CCC1CC2)c1cccc(C(F)F)c1F (single isomer, unassigned)      True
1  C[C@@H](NC(=O)c1cc(N2CC3CC(C2)O3)c(F)cc1NC1CCN(C)CC1)c1cccc(C(F)F)c1F     False
2  C[C@@H](NC(=O)c1cc(-c2ccncc2)c(F)cc1N[C@@H]1CN2CCC1CC2)c1cccc(C(F)F)c1F (single isomer, unassigned)      True
3  C[C@@H](NC(=O)c1cc(N2CCn3nccc3C2)c(F)cc1NC1CCN(C)CC1)c1cccc(C(F)F)c1F      True
4  C[C@@H](NC(=O)c1cc(N2CCN(C)CC2)c(F)cc1NC1CCN(C)CC1)c1cccc(C(F)F)c1F      True

Task: Say whether its IC50 is strictly beneath 40 nM. Entry: C[C@@H](NC(=O)c1cc(N2CCOCC2)c(F)cc1NC12CC(N(C)C)(C1)C2)c1cccc(C(F)F)c1F
Result: False

Task: Say whether its IC50 is strictly beneath 40 nM. Entry: C[C@@H](NC(=O)c1cc(O[C@@H]2CCOC2)c(F)cc1NC1CCN(C)CC1)c1cccc(C(F)F)c1F
Result: False

Task: Say whether its IC50 is strictly beneath 40 nM. Entry: C[C@@H](NC(=O)c1cc(-c2ccc(=O)n(C)c2)c(F)cc1NC1CCN(C)CC1)c1cccc(C(F)F)c1F
Result: True

Task: Say whether its IC50 is strictly beneath 40 nM. Entry: C[C@@H](NC(=O)c1cc(N2CC[C@@]23CCOC3)c(F)cc1NC1CCN(C)CC1)c1cccc(C(F)F)c1F (single isomer, unassigned)
Result: False

Task: Say whether its IC50 is strictly beneath 40 nM. Entry: C[C@@H]1CC(F)(F)CN1c1cc(C(=O)N[C@H](C)c2cccc(C(F)F)c2F)c(NC2CCN(C)CC2)cc1F (single isomer, unassigned)
Result: False

Task: Say whether its IC50 is strictly beneath 40 nM. Entry: C[C@@H](NC(=O)c1cc(N2CCOCC2)c(F)cc1N[C@H]1CN2CCC1CC2)c1cccc(C(F)F)c1F
Result: True

Task: Say whether its IC50 is strictly beneath 40 nM. Entry: C[C@@H](NC(=O)c1cc(N2CC[C@]23CCOC3)c(F)cc1NC1CCN(C)CC1)c1cccc(C(F)F)c1F (single isomer, unassigned)
Result: False
